- assay.procedure: Cell toxicity: cell growth inhibition assay in Vero cells (MTT uptake)
- Type: cell-based
- details: monkey, 50% inhibition of cell viability at 96 hours, read-out: CCID50 at 96 hr.
quantity.kind: CC50 at 96 h

CC50 at 96 h recorded for this molecule, `C#Cc1cn([C@H]2C[C@H](O)[C@@H](CO)O2)c(=O)[nH]c1=O` , is 300 to 3000 nM

* * *

Consider the following compounds; for each one, report its CC50 at 96 h.
- assay.procedure: Cell toxicity: cell growth inhibition assay in Vero cells (MTT uptake)
- Format: cell-based
- details: monkey, vero cells, 50% inhibition of cell viability at 96 hours, read-out: CCID50 at 96 hr.
One number for each entry, in µM.

Items follow; give CC50 at 96 h for each.
1. C#Cc1cn([C@H]2C[C@H](O)[C@@H](COC(=O)c3ccc(C)cc3)O2)c(=O)[nH]c1=O
2. C#Cc1cn([C@H]2C[C@H](O)[C@@H](COC(=O)CCCCCCC)O2)c(=O)[nH]c1=O
3. C#Cc1cn([C@H]2C[C@H](O)[C@@H](COC(=O)c3ccccc3)O2)c(=O)[nH]c1=O
4. C#Cc1cn([C@H]2C[C@H](O)[C@@H](COC(=O)c3ccc(OC)cc3)O2)c(=O)[nH]c1=O
5. C#Cc1cn([C@H]2C[C@H](O)[C@@H](COC(=O)C3CC3)O2)c(=O)[nH]c1=O
6. C#Cc1cn([C@H]2C[C@H](O)[C@@H](COC(=O)c3cccc(Cl)c3)O2)c(=O)[nH]c1=O

// result
0.8
1.8
1.3
3
15
19

CC50 at 96 h recorded for this compound, `C#Cc1cn([C@H]2C[C@H](O)[C@@H](COC(=O)C(C)(C)C)O2)c(=O)[nH]c1=O` , is 10.2

* * *

- System: Human cytomegalovirus (HCMV)
- assay.procedure: HCMV plaque reduction assay in MRC5 or Detroit 532 cells
- Type: cell-based
- details: Human betaherpesvirus 5, MRC5, MRC5 or Detroit 532 cells
Consider the following compounds; for each one, report its IC50.
Give bare numbers, in nM.

Some entries whose results are on file:
substance.smiles	readout.unit	IC50
C#Cc1cn([C@H]2C[C@H](O)[C@@H](COC(=O)CCCCCCC)O2)c(=O)[nH]c1=O	nM	2200
C#Cc1cn([C@H]2C[C@H](OC(=O)C(C)(C)C)[C@@H](COC(=O)C(C)(C)C)O2)c(=O)[nH]c1=O	nM	2000
C#Cc1cn([C@H]2C[C@H](O)[C@@H](COC(=O)C3CC3)O2)c(=O)[nH]c1=O	nM	900
C#Cc1cn([C@H]2C[C@H](O)[C@@H](COC(=O)C(C)(C)C)O2)c(=O)[nH]c1=O	nM	400
C#Cc1cn([C@H]2C[C@H](OC(=O)c3ccccc3)[C@@H](COC(=O)c3ccccc3)O2)c(=O)[nH]c1=O	nM	4700

Items follow; give IC50 for each.
1. C#Cc1cn([C@H]2C[C@H](OC(=O)c3cccc(Cl)c3)[C@@H](COC(=O)c3cccc(Cl)c3)O2)c(=O)[nH]c1=O
2. C#Cc1cn([C@H]2C[C@H](O)[C@@H](COC(=O)c3ccc(C)cc3)O2)c(=O)[nH]c1=O
3. C#Cc1cn([C@H]2C[C@H](OC(=O)c3ccc(OC)cc3)[C@@H](COC(=O)c3ccc(OC)cc3)O2)c(=O)[nH]c1=O
4. C#Cc1cn([C@H]2C[C@H](O)[C@@H](COS(=O)(=O)c3ccc(C)cc3)O2)c(=O)[nH]c1=O
5. C#Cc1cn([C@H]2C[C@H](O)[C@@H](COC(=O)c3ccccc3)O2)c(=O)[nH]c1=O
6. C#Cc1cn([C@H]2C[C@H](O)[C@@H](COC(=O)c3cccc(Cl)c3)O2)c(=O)[nH]c1=O
7. C#Cc1cn([C@H]2C[C@H](OC(=O)C3CC3)[C@@H](COC(=O)C3CC3)O2)c(=O)[nH]c1=O

// result
1. 2700
2. 3400
3. 20700
4. 5600
5. 300
6. 460
7. 2000
